Values were extracted from ChEMBL document CHEMBL3045116.

# Test system: HeLa
# Assay protocol: Cytotoxicity against Homo sapiens (human) HeLa cells assessed as change in cellular morphology
# Format: cell-based
# Details: hela
Below, each of the compounds is paired with its reported CC50 value.
Recorded endpoint: CC50 (µM)

INSERT INTO measurements (smiles_record, study_target, cmp, result_number) VALUES
  ('CCN(CC)CN1C(=O)/C(=N/NC(N)=S)c2ccccc21', 'HeLa', '>', 100),
  ('CCN(CC)CN1C(=O)/C(=N/NC(=S)Nc2ccccc2)c2cc(Cl)ccc21', 'HeLa', '=', 13.5),
  ('CCN(CC)CN1C(=O)/C(=N/NC(=S)Nc2ccc(C)cc2)c2ccccc21', 'HeLa', '=', 10.7),
  ('CCN(CC)CN1C(=O)/C(=N/NC(N)=S)c2cc(Cl)ccc21', 'HeLa', '>', 100),
  ('CCN(CC)CN1C(=O)/C(=N/NC(=S)Nc2ccc(Cl)cc2)c2ccccc21', 'HeLa', '=', 9.8);

====

Below, each of the compounds is paired with its reported EC50 value.
# Tested on: Human respirovirus 3
# Assay protocol: Antiviral activity against Human parainfluenza virus 3 infected African green monkey Vero cells assessed as reduction of virus-induced cytopathic effect after 3 days by colorimetric formazan-based MTS assay
# Type: functional, organism-based
# Details: Human respirovirus 3, Vero, 72 h
Recorded endpoint: EC50

INSERT INTO assay_data (smiles_record, recorded_endpoint, result) VALUES
  ('CCN(CC)CN1C(=O)/C(=N/NC(=S)Nc2ccccc2)c2ccccc21', 'EC50', '> 20 µM'),
  ('CCN(CC)CN1C(=O)/C(=N/NC(=S)Nc2ccc(Cl)cc2)c2ccccc21', 'EC50', '> 4 µM'),
  ('NC(=O)c1ncn([C@@H]2O[C@H](CO)[C@@H](O)[C@H]2O)n1', 'EC50', '50 µM'),
  ('CCN(CC)CN1C(=O)/C(=N/NC(N)=S)c2cc(Cl)ccc21', 'EC50', '> 100 µM'),
  ('CCN(CC)CN1C(=O)/C(=N/NC(=S)Nc2ccc(C)cc2)c2ccccc21', 'EC50', '> 20 µM'),
  ('CCN(CC)CN1C(=O)/C(=N/NC(=S)Nc2ccc(Cl)cc2)c2cc(Cl)ccc21', 'EC50', '> 20 µM'),
  ('CCN(CC)CN1C(=O)/C(=N/NC(=S)Nc2ccc(OC)cc2)c2cc(Cl)ccc21', 'EC50', '> 0.8 µM'),
  ('CCN(CC)CN1C(=O)/C(=N/NC(=S)Nc2ccccc2)c2cc(Cl)ccc21', 'EC50', '> 20 µM'),
  ('CCN(CC)CN1C(=O)/C(=N/NC(N)=S)c2ccccc21', 'EC50', '> 100 µM'),
  ('CCN(CC)CN1C(=O)/C(=N/NC(=S)Nc2ccc(C)cc2)c2cc(Cl)ccc21', 'EC50', '> 4 µM'),
  ('CCN(CC)CN1C(=O)/C(=N/NC(=S)Nc2ccc(OC)cc2)c2ccccc21', 'EC50', '> 0.8 µM');

====

Below, each of the compounds is paired with its reported EC50 value.
# System: Vesicular stomatitis virus
# Assay protocol: Antiviral activity against Vesicular stomatitis virus infected human HEL cells assessed as reduction of virus-induced cytopathic effect after 3 days by colorimetric formazan-based MTS assay
# Assay type: functional, organism-based
# Details: 72 h
Recorded endpoint: EC50

INSERT INTO measurements (smiles_record, study_target, recorded_endpoint, result) VALUES
  ('CCN(CC)CN1C(=O)/C(=N/NC(=S)Nc2ccccc2)c2cc(Cl)ccc21', 'Vesicular stomatitis virus', 'EC50', '> 20 µM'),
  ('CCN(CC)CN1C(=O)/C(=N/NC(=S)Nc2ccc(Cl)cc2)c2cc(Cl)ccc21', 'Vesicular stomatitis virus', 'EC50', '> 20 µM'),
  ('CCN(CC)CN1C(=O)/C(=N/NC(N)=S)c2cc(Cl)ccc21', 'Vesicular stomatitis virus', 'EC50', '> 100 µM'),
  ('CCN(CC)CN1C(=O)/C(=N/NC(=S)Nc2ccccc2)c2ccccc21', 'Vesicular stomatitis virus', 'EC50', '> 100 µM'),
  ('Nc1nc2c(ncn2COC(CO)CO)c(=O)[nH]1', 'Vesicular stomatitis virus', 'EC50', '> 100 µM'),
  ('O=c1[nH]c(=O)n([C@H]2C[C@H](O)[C@@H](CO)O2)cc1/C=C/Br', 'Vesicular stomatitis virus', 'EC50', '> 250 µM'),
  ('CCN(CC)CN1C(=O)/C(=N/NC(=S)Nc2ccc(OC)cc2)c2ccccc21', 'Vesicular stomatitis virus', 'EC50', '> 20 µM'),
  ('Nc1ccn(C[C@@H](CO)OCP(=O)(O)O)c(=O)n1', 'Vesicular stomatitis virus', 'EC50', '> 250 µM'),
  ('CCN(CC)CN1C(=O)/C(=N/NC(N)=S)c2ccccc21', 'Vesicular stomatitis virus', 'EC50', '> 100 µM'),
  ('Nc1nc2c(ncn2COCCO)c(=O)[nH]1', 'Vesicular stomatitis virus', 'EC50', '> 250 µM'),
  ('CCN(CC)CN1C(=O)/C(=N/NC(=S)Nc2ccc(OC)cc2)c2cc(Cl)ccc21', 'Vesicular stomatitis virus', 'EC50', '> 20 µM'),
  ('CCN(CC)CN1C(=O)/C(=N/NC(=S)Nc2ccc(C)cc2)c2cc(Cl)ccc21', 'Vesicular stomatitis virus', 'EC50', '> 20 µM'),
  ('CCN(CC)CN1C(=O)/C(=N/NC(=S)Nc2ccc(C)cc2)c2ccccc21', 'Vesicular stomatitis virus', 'EC50', '> 20 µM'),
  ('CCN(CC)CN1C(=O)/C(=N/NC(=S)Nc2ccc(Cl)cc2)c2ccccc21', 'Vesicular stomatitis virus', 'EC50', '> 20 µM');
